Data origin: patent US20110311485A1

# study target: S1P1 receptors (Homo sapiens, UniProt P21453)
# Sequence (P21453 whole entry): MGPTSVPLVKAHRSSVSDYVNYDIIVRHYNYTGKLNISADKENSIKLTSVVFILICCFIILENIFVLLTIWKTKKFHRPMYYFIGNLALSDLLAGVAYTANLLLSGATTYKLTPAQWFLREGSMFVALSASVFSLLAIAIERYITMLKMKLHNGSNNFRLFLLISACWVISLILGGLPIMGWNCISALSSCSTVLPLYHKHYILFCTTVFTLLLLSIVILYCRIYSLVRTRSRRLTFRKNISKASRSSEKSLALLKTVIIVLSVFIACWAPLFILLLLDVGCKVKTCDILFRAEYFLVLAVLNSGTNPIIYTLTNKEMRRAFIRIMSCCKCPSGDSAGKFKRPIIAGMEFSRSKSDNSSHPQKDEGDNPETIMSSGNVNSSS
# measurement protocol: 35S-GTPyS binding assay
# assay conditions: 35S-GTPyS binding on membranes; compound 0.1 nM-10 μM; 10 μM S1P as 100% maximum efficacy; 90 min at room temperature
recorded endpoint: EC50 (nM)
Give bare numbers, in nM.

As a guide, the following entries are already answered.
In [3]: df
Out[3]:
                         compound_structure  value_observed
0  CCn1nc(-c2noc(-c3ccncc3)n2)c2c1CC(C)(C)CC2             146
1  CCn1nc(-c2nc(-c3ccc(S(N)(=O)=O)cc3)no2)c2c1CC(C)(C)CC2              40

Could you tell me EC50 for each of these molecules? They are listed below.
1. CCn1nc(-c2nc(-c3ccc(CCC(=O)O)cc3C)no2)c2c1CC(C)(C)CC2
2. CCn1nc(-c2nc(-c3ccc(S(=O)(=O)NCCC(=O)O)c(Cl)c3)no2)c2c1CC(C)(C)CC2
3. Cn1nc(-c2nnc(-c3ccc(CCN4CC(C(=O)O)C4)c(C(F)(F)F)c3)s2)c2c1CC(C)(C)CC2
4. Cc1cc(-c2noc(-c3nn(C)c4c3CCC(C)(C)C4)n2)cc(C)c1CCN[C@@H](C)C(=O)O
5. Cc1cc(-c2noc(-c3nn(C)c4c3CCC(C)(C)C4)n2)cc(C)c1CCNC(C)(C)C
6. CCn1nc(-c2nc(-c3ccc(CCNCC(=O)O)c(C(F)(F)F)c3)no2)c2c1CC(C)(C)CC2

1. 16
2. 26
3. 12
4. 1.4
5. 8.5
6. 0.56

###

# study target: S1P1 receptors (Homo sapiens)
# measurement protocol: 35S-GTPyS binding assay
# Format: biochemical
# assay conditions: 35S-GTPyS binding on membranes; compound 0.1 nM-10 μM; 10 μM S1P as 100% maximum efficacy; 90 min at room temperature
Field 'label' (enum: rule met / rule not met). Set to rule met when EC50 is strictly under 0.007 µM; else rule not met.

In [3]: df
Out[3]:
                                   molecule  classification
0  CCn1nc(-c2nc(-c3ccc(N4CCN(CCC(=O)O)CC4)cc3)no2)c2c1CC(C)(C)CC2 [Example 8]    rule not met
1  Cc1cc(-c2nnc(-c3nn(C)c4c3CCC(C)(C)C4)s2)cc(C)c1OCCN [Example 139]    rule not met
2  Cc1cc(-c2noc(-c3nn(C)c4c3CCC(C)(C)C4)n2)cc(C)c1CCN1CC(C(=O)O)C1 [Example 91]    rule not met

Quick check: does CCc1cc(-c2noc(-c3nn(CC)c4c3CCC(C)(C)C4)n2)c(C)nc1CCN [Example 138] have EC50 under 0.007 µM?
rule not met

What do you have for Cc1cc(-c2noc(-c3nn(C)c4c3CCC(C)(C)C4)n2)cc(C)c1CCO [Example 141] ?
rule met

Note, next up: Cc1cc(-c2noc(-c3noc4c3CCC(C)(C)C4)n2)cc(C)c1CCNCC(=O)O [Example 74]
rule met

Same read-out for CCn1nc(-c2nc(-c3ccc4c(c3)CCC(NCC(=O)O)C4)no2)c2c1CC(C)(C)CC2 (centres unmarked) [Example 68] ?
rule met

Now this one: CCc1cc(-c2noc(-c3nn(CC(F)(F)F)c4c3CCC(C)(C)C4)n2)c(C)nc1O [Example 56]
rule not met
